# Tested on: K562
# test.protocol: Cytotoxicity against human K562 cells by MTT assay
# Type: functional, cell-based
Please go through the items and note down their log10 of IC50.
// stored as log10 of IC50 expressed in µg/mL

CC(=O)O[C@@]12CO[C@@H]1C[C@H](O)[C@@]1(C)C(=O)[C@H](O)C3=C(C)[C@@H](OC(=O)[C@H](OC(=O)CC(O)C(=O)[O-])[C@@H](NC(=O)OC(C)(C)C)c4ccccc4)C[C@@](O)([C@@H](OC(=O)c4ccccc4)[C@H]21)C3(C)C.[Na+] (mixture of isomers) ... 0.18
CC(=O)O[C@@]12CO[C@@H]1C[C@H](O)[C@@]1(C)C(=O)[C@H](O)C3=C(C)[C@@H](OC(=O)[C@H](OC(=O)C[C@H](O)C(=O)[O-])[C@@H](NC(=O)OC(C)(C)C)c4ccccc4)C[C@@](O)([C@@H](OC(=O)c4ccccc4)[C@H]21)C3(C)C.[Na+] ... 1.58
CC(=O)O[C@@]12CO[C@@H]1C[C@H](O)[C@@]1(C)C(=O)[C@H](O)C3=C(C)[C@@H](OC(=O)[C@H](OC(=O)C[C@H](O)C(=O)O)[C@@H](NC(=O)OC(C)(C)C)c4ccccc4)C[C@@](O)([C@@H](OC(=O)c4ccccc4)[C@H]21)C3(C)C ... 0.59
CC(=O)O[C@@]12CO[C@@H]1C[C@H](OC(=O)CC(O)C(=O)O)[C@@]1(C)C(=O)[C@H](OC(=O)CC(O)C(=O)O)C3=C(C)[C@@H](OC(=O)[C@H](OC(=O)CC(O)C(=O)O)[C@@H](NC(=O)OC(C)(C)C)c4ccccc4)C[C@@](O)([C@@H](OC(=O)c4ccccc4)[C@H]21)C3(C)C (mixture of isomers) ... 1.23

For every record below, what is its log10 of IC50?
1. CC(=O)O[C@@]12CO[C@@H]1C[C@H](O)[C@@]1(C)C(=O)[C@H](O)C3=C(C)[C@@H](OC(=O)[C@H](O)[C@@H](NC(=O)OC(C)(C)C)c4ccccc4)C[C@@](O)([C@@H](OC(=O)c4ccccc4)[C@H]21)C3(C)C.O.O.O
2. CC(=O)O[C@@]12CO[C@@H]1C[C@H](O)[C@@]1(C)C(=O)[C@H](O)C3=C(C)[C@@H](OC(=O)[C@H](OC(=O)CC(O)C(=O)O)[C@@H](NC(=O)OC(C)(C)C)c4ccccc4)C[C@@](O)([C@@H](OC(=O)c4ccccc4)[C@H]21)C3(C)C (some centres undefined)

Reply:
1: 0.84; 2: 0.98

For every record below, what is its log10 of IC50?
1. CC(=O)O[C@@]12CO[C@@H]1C[C@H](OC(=O)CC(O)C(=O)O)[C@@]1(C)C(=O)[C@H](O)C3=C(C)[C@@H](OC(=O)[C@H](O)[C@@H](NC(=O)OC(C)(C)C)c4ccccc4)C[C@@](O)([C@@H](OC(=O)c4ccccc4)[C@H]21)C3(C)C (mixture of isomers)
2. CC(=O)O[C@@]12CO[C@@H]1C[C@H](O)[C@@]1(C)C(=O)[C@H](O)C3=C(C)[C@@H](OC(=O)[C@H](OC(=O)C[C@@H](O)C(=O)O)[C@@H](NC(=O)OC(C)(C)C)c4ccccc4)C[C@@](O)([C@@H](OC(=O)c4ccccc4)[C@H]21)C3(C)C
3. CC(=O)O[C@@]12CO[C@@H]1C[C@H](O)[C@@]1(C)C(=O)[C@H](O)C3=C(C)[C@@H](OC(=O)[C@H](OC(=O)C[C@@H](O)C(=O)[O-])[C@@H](NC(=O)OC(C)(C)C)c4ccccc4)C[C@@](O)([C@@H](OC(=O)c4ccccc4)[C@H]21)C3(C)C.[Na+]

Reply:
1: -1.16; 2: -0.07; 3: 1.27
